These data points were gathered from ChEMBL document CHEMBL1135326.

Exercise: state measured log10 of IC50 for each of the molecules provided.
Test system: Jurkat
assay: Inhibition of AP-1 and NF-kB-mediated transcriptional activation in Jurkat cells
Format: functional, cell-based, Homo sapiens
recorded conditions: Homo sapiens, Jurkat
Friendly reminder: values = log10 of IC50, unit nM.

{"structure as smiles": "CCOC(=O)c1cnc(N(C(C)=O)N2C(=O)C=C(C)C2=O)nc1C(F)(F)F", "obs value": 2.61}
{"structure as smiles": "CCc1nc(N(C)N2C(=O)C=C(C)C2=O)ncc1C(=O)c1ccccc1", "obs value": 2.61}
{"structure as smiles": "CCCC(=O)c1cnc(NN2C(=O)C=C(C)C2=O)nc1CC", "obs value": 2.65}
{"structure as smiles": "CCOC(=O)c1cnc(NN2C(=O)C=C(c3ccccc3)C2=O)nc1C(F)(F)F", "obs value": 3.57}
{"structure as smiles": "CCOC(=O)c1cnc(NN2C(=O)C=C(C)C2=O)nc1C(F)(F)C(F)(F)F", "obs value": 2.30}

For each entry beneath this line, provide reported log10 of IC50.
1. CCOC(=O)c1cnc(NN2C(=O)C=C(C)C2=O)nc1C1CC1
2. CCc1nc(NN2C(=O)C=C(C)C2=O)ncc1-c1nc(C)co1
3. CCOC(=O)c1cnc(N(C)N2C(=O)C=C(C)C2=O)nc1-c1ccc(C)s1
4. CCOC(=O)c1cnc(N(C(=O)c2ccccc2)N2C(=O)C=C(C)C2=O)nc1C(F)(F)F
5. CCOC(=O)c1cnc(NN2C(=O)C=C(C)C2=O)nc1-c1ccsc1

// result
3.18
2.92
2.54
2.92
2.30
